The origin of these recorded values is patent US20250368637A1.

target_or_system: FAP Cyno Plasma (Macaca fascicularis)
Sequence (A0A2K5VGH4 1-745): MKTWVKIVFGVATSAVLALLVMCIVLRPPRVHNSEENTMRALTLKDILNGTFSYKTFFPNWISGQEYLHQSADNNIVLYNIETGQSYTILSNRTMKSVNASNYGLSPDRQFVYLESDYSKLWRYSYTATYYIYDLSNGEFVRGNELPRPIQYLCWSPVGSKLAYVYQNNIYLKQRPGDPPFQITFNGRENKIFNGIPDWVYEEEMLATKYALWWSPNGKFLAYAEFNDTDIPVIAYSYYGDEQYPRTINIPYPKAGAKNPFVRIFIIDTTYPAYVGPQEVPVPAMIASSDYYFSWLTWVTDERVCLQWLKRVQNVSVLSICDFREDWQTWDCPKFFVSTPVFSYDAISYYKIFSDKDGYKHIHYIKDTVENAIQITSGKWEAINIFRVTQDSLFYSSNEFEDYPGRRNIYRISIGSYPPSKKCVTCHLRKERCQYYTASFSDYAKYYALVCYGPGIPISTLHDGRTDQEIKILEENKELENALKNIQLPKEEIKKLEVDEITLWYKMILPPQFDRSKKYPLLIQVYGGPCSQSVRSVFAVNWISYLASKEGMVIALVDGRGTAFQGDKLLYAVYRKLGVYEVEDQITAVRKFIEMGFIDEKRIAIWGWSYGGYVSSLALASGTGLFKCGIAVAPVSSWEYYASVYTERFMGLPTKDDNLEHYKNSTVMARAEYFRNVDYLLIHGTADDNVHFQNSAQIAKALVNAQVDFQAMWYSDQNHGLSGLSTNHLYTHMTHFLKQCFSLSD
test_summary: FAP plasma inhibition assay, cynomolgus plasma
assay_setup: cynomolgus plasma dilution 1:40
Experimental: Plasma (anticoagulant K2EDTA) was used as the enzyme source: Human plasma (Pooled from AZ Biobank), Mouse plasma (AZ AST Biobank), and Cynomolgus plasma (BioIVT, #NHP00PLK2FNN, lot CYN222895). 384-Well black fluotrack PS plates (Greiner 781076) were used. […] A fluorescence blank read was taken before substrate addition. […] IC50 values were determined by plotting % inhibition versus log compound concentration.
metric: IC50
Answer with the figure and its unit, nothing else.

Summary for this compound, N#C[C@@H]1CSCN1C(=O)CNC(=O)c1ccnc2ccc(N3CCOCC3)cc12 : IC50 is 0.4 nM
